Origin of values: PubChem BioAssay

# system_under_test: E3 ubiquitin-protein ligase XIAP (Homo sapiens)
# method_description: XIAP binders, primary screen, biophysical, small-molecule microarray, fluorescence 635 nm (AID 1181);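 also: score merges 667 nm emission and signal to noise over triplicate slides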
# study_conditions: small-molecule microarray binding, higher = more signal
recorded_metric: composite z-score

- C=C(COC)/C(=C/C[C@@H](OC(C)=O)c1cccc(OCCO)c1)c1cnc2ccccc2c1: 0.133
- COC(=O)c1ccc(OC)c(/C=C\CC(OC(=O)c2ccncc2)c2ccccc2)c1 (centres undefined): 0.0774
- [N-]=[N+]=Nc1ccccc1C[C@@]1(C(=O)NCC(O)CO)N=C(c2ccc(OCCCO)cc2)O[C@@H]1c1ccccc1N=[N+]=[N-] (some centres undefined): 0.0651
- Cc1ccc(S[C@]2(C(=O)NCCN3CCOCC3)CC(=O)N(C(C)C)[C@@H]2c2ccc(CO)cc2I)cc1: -0.0304
